system: PI & II; assay: Heavy metal effect on proteolytic activity of PI & II; assay type: biochemical, surf clam, Spisula solidissima; conditions: metal ions 0.5 mM, pH 2.8; control 214.7
We begin with a simple list: items and their reported PI & II Activity (HU/ml).
Readout kind: PI & II Activity (HU/ml)

>>> result("[Zn+2] [Zn++]")
"194.0 HU/ml"
>>> result("[Cd+2] [Cd++]")
"206.7 HU/ml"
>>> result("[Ca+2] [Ca++]")
"209.4 HU/ml"
>>> result("[Ag+] [Ag+]")
"219.3 HU/ml"
>>> result("[Co+2] [Co++]")
"208.0 HU/ml"
>>> result("[Pb+2] [Pb++]")
"214.0 HU/ml"
>>> result("[Hg+2] [Hg++]")
"187.0 HU/ml"
>>> result("[Ni+2] [Ni++]")
"206.0 HU/ml"
>>> result("[Sn+2] [Sn++]")
"190.6 HU/ml"
>>> result("[Cu+2] [Cu++]")
"205.4 HU/ml"
>>> result("[Mg+2] [Mg++]")
"211.4 HU/ml"
